- Test details: blockers of mitochondrial fusion, WT vs mutant – cell-based, chemical genetic, wild-type and mutant, confirmation (AID 1361)
- Details: Cell-based mitochondrial fusion phenotype, imaging, WT cells
Activity calls are given as the source filed them. How the calls were made is not given here.
Tick one outcome: active, inactive

Solved cases below.
CCN(CC)P(=O)(Nc1ccc(C)cc1Br)c1ccc(N(C)C)cc1NC(=O)c1ccco1 (stereo not given) = active
Fc1ccc(N2N=C(c3cccs3)CC2c2ccco2)c(F)c1 (stereo not given) = active
Cc1ccc(C(=O)Nc2nc(-c3ccccc3)c(-c3ccccc3)o2)cc1 = active
COc1ccc(-c2noc(-c3ccccc3-c3ccccc3)n2)cc1OC = inactive

In the following, a different molecule is considered.
Q. Lab log entry: CCOC(=O)c1c(NC(=O)C(C)N2CCN(C(=O)c3ccco3)CC2)sc2c1CCCC2 (stereo not given) — outcome as called in the assay?
A. active

###

- Test details: blockers of mitochondrial fusion, WT vs mutant – cell-based, chemical genetic, wild-type and mutant, confirmation (AID 1361)
- Details: Cell-based mitochondrial fusion phenotype, imaging, WT cells
The source made the active and inactive calls. The rule behind the calls is not given here.
Tick one outcome: 1.0 = active, 0.0 = inactive

Solved cases below.
O=C(CCN1C(=O)/C(=C\c2cccs2)SC1=S)NC1=NCCS1 = 1.0
O=C(CSc1nnc2scc(-c3ccccc3)n12)Nc1ccc2c(c1)OCCO2 = 0.0
COC(=O)c1ccc(NCC(=O)c2ccccc2)cc1 = 0.0
Cc1nc2ccccc2nc(C)c1=NOCc1ccc(Cl)cc1Cl = 1.0

In the following, a different compound is considered.
Q. Lab log entry: `COC(=O)[C@H](Cc1ccccc1)NC(=O)O[C@H]1C(=O)c2ccc(OC)cc2O[C@@H]1c1ccc2c(c1)OCO2` — outcome as called in the assay?
A. 1.0

###

- Test details: blockers of mitochondrial fusion, WT vs mutant – cell-based, chemical genetic, wild-type and mutant, confirmation (AID 1361)
- Details: Cell-based mitochondrial fusion phenotype, imaging, WT cells
Activity calls are given as the source filed them. No rule for the calls is given here.
Tick one outcome: active, inactive

Solved cases below.
Cc1ccc(C(C)C)c(OCc2ccc(C(=O)N/N=C/c3ccc(O)cc3O)cc2)c1 = inactive
COc1ccccc1N(CC(O)COc1c(C)cc(C)cc1C)S(=O)(=O)c1ccccc1 (stereo not drawn) = active
CC1(C)CC(=O)C(C=NCc2cccnc2)=C(O)C1 = inactive

In the following, a different compound is considered.
Q. Lab log entry: CSc1ccc(OC2CCCCC2NS(=O)(=O)c2ccc(Cl)cc2)cc1 (stereo not drawn) — outcome as called in the assay?
A. active

###

- Test details: blockers of mitochondrial fusion, WT vs mutant – cell-based, chemical genetic, wild-type and mutant, confirmation (AID 1361)
- Details: Cell-based mitochondrial fusion phenotype, imaging, WT cells
Active and inactive are the calls of the source. The rule behind the calls is not given here.
Tick one outcome: 1 (active), -1 (inactive)

Solved cases below.
Cc1cc(C)nc(NC2=NCC(=O)N2c2ccc3c(c2)OCCO3)n1 = -1
CCOc1ccc(C(C(=O)NC2CCCC2)N(Cc2ccccc2)C(=O)c2nsc(Cl)c2Cl)cc1 (configuration not stated) = 1
CCCOP(=O)(OCCC)C(Nc1ccc(C(C)C)cc1)c1ccc([N+](=O)[O-])cc1 (configuration not stated) = 1

Q. Lab log entry: `CCCOc1ccc(-c2nc(C#N)c(N3CCC(C(N)=O)CC3)o2)cc1` — outcome as called in the assay?
A. -1

Q. Lab log entry: `N#Cc1ccc(NC(=O)Nc2ccc(Cl)cc2)cc1` — outcome as called in the assay?
A. 1

Q. Lab log entry: `COCCn1c(=S)[nH]c2cc(C(=O)N3CCc4ccccc43)ccc2c1=O` — outcome as called in the assay?
A. -1

Q. Lab log entry: CCOc1ccc(Br)cc1C1C(C(=O)OC)=C(N)Oc2cc(N(C)C)ccc21 (configuration not stated) — outcome as called in the assay?
A. 1

Q. Lab log entry: `O=c1ccccn1Cc1c(Cl)cccc1Cl` — outcome as called in the assay?
A. -1

Q. Lab log entry: `Clc1ccc(-c2csc3ncnc(N4CCc5ccccc5C4)c23)cc1` — outcome as called in the assay?
A. 1

Q. Lab log entry: `CCc1c(C)nc2[nH]nc(-c3ccccc3)n2c1=O` — outcome as called in the assay?
A. -1

Q. Lab log entry: `CCS(=O)(=O)Nc1cccc(-c2cc(-c3ccccc3)c3cc(C)ccc3n2)c1` — outcome as called in the assay?
A. 1

Q. Lab log entry: `CC1=CC(C)(C)N(C(=O)c2ccc(F)cc2)c2cc3c(cc21)OCO3` — outcome as called in the assay?
A. -1

###

Recorded IC50 for the following molecules
- Test details: blockers of mitochondrial fusion, WT vs mutant – cell-based, chemical genetic, wild-type and mutant, confirmation (AID 1361)
- Details: Cell-based mitochondrial fusion phenotype, imaging, WT cells
Active and inactive are the calls of the source. The rule behind the calls is not given here.

Some solved cases for reference:
COc1ccccc1-n1c(SCC(=O)c2ccc(O)cc2O)nc2cc([N+](=O)[O-])ccc21 = 6.02 µM
O=C(Nc1ccccc1N1CCOCC1)c1cccc(F)c1 = 9.3 µM
O=C1c2ccccc2C(=O)N1CCN1CCCCC1 = > 25 µM (inactive)
COc1ccc(CN(C)C2c3ccccc3-c3ccccc32)cc1 = 16.7 µM
CCC[C@@H]1C[C@@]1(CCC)[C@@H](NP(=O)(c1ccccc1)c1ccccc1)c1ccc(C(=O)OC)cc1 = 12.6 µM

Q. Read the entry `CC(C)C(=O)N(c1cc2sc(=O)oc2c2ccccc12)S(=O)(=O)c1cccs1` and write its reported IC50.
A. 7.48 µM

Q. Read the entry `COc1ccc(Br)cc1CN(C)CC(=O)Nc1ccccc1Cl` and write its reported IC50.
A. 19.8 µM

Q. Read the entry CCOc1ccccc1NC(=O)C(NCC1CCCCC1)c1ccccc1 (centres undefined) and write its reported IC50.
A. 14.3 µM

Q. Read the entry `COc1ccc(C(C)(C)C)cc1NC(=O)Nc1ccc2c(c1)OCO2` and write its reported IC50.
A. 9.81 µM

###

Recorded IC50 for the following molecules
- Test details: blockers of mitochondrial fusion, WT vs mutant – cell-based, chemical genetic, wild-type and mutant, confirmation (AID 1361)
- Details: Cell-based mitochondrial fusion phenotype, imaging, WT cells

Cc1ccc(C)c(N2CCN(C(=O)Cc3cn(C)c4ccccc34)CC2)c1 = 21.9 µM

Continue with the next molecule.
Q. Read the entry Cc1ccc(C2CN(C)C3(C(=O)Nc4ccccc43)C23COc2ccccc2C3=O)cc1 (centres undefined) and write its reported IC50.
A. 11 µM

###

- Test details: blockers of mitochondrial fusion, WT vs mutant – cell-based, chemical genetic, wild-type and mutant, confirmation (AID 1361)
- Details: Cell-based mitochondrial fusion phenotype, imaging, WT cells
Calls of active or inactive are those of the source. No rule for the calls is given here.
Assay readout: IC50

CCN(Cc1cc2cc(C)ccc2[nH]c1=O)C(=O)c1cccc(OC)c1 = > 25 µM (inactive)
CCCCc1ccc(NC(=S)Nc2ccc(Cl)c(S(=O)(=O)N(C)C)c2)cc1 = 9.48 µM
CCCN(Cc1ccccc1)C(=S)Nc1ccc(SC(F)F)cc1 = 20.6 µM

Q. Read the entry `CCOC(=O)c1c(NC(=O)c2cccs2)sc2c1CCCC2` and write its reported IC50.
A. > 25 µM (inactive)

###

- Test details: blockers of mitochondrial fusion, WT vs mutant – cell-based, chemical genetic, wild-type and mutant, confirmation (AID 1361)
- Details: Cell-based mitochondrial fusion phenotype, imaging, WT cells
Activity calls are given as the source filed them. The rule behind the calls is not given here.
Assay readout: IC50

Some solved cases for reference:
O=C(C1CCCCC1)N(Cc1ccccc1)c1ccccn1 = > 25 µM (inactive)
CCn1cc(C(=O)OCC(=O)c2cc(C)n(-c3cccc(C(F)(F)F)c3)c2C)c(=O)c2ccc(C)nc21 = 11.1 µM
CCOC(=O)C1=C(CC)Nc2ccccc2N/C1=N\S(=O)(=O)c1ccc2ccccc2c1 = 11 µM

Q. Read the entry Cc1ccc(CNCC(O)(c2ccccc2)c2ccc(Cl)cc2)cc1 (stereo not given) and write its reported IC50.
A. 18.7 µM

Q. Read the entry `COC(=O)Cn1ccc(N(C)C)c(C#N)c1=O` and write its reported IC50.
A. > 25 µM (inactive)

###

- Test details: blockers of mitochondrial fusion, WT vs mutant – cell-based, chemical genetic, wild-type and mutant, confirmation (AID 1361)
- Details: Cell-based mitochondrial fusion phenotype, imaging, WT cells
Active and inactive are the calls of the source. No rule for the calls is given here.
Tick one outcome: Y (active), N (inactive)

Solved cases below.
Nc1ccc2nn(-c3ccccc3)nc2c1 = N
CCOC(=O)c1c(C)n(C)c2cc(Br)c(C(=O)OC)cc12 = N

In the following, a different compound is considered.
Q. Lab log entry: `CC1(C)C=Cc2c(c3c(c4c(=O)c(-c5ccc(O)cc5)coc24)OC(C)(C)CC3)O1` — outcome as called in the assay?
A. Y

###

- Test details: blockers of mitochondrial fusion, WT vs mutant – cell-based, chemical genetic, wild-type and mutant, confirmation (AID 1361)
- Details: Cell-based mitochondrial fusion phenotype, imaging, WT cells
Active and inactive are the calls of the source. No rule for the calls is given here.
Assay readout: IC50

Some solved cases for reference:
FC(F)(F)c1cnc(Sc2nc3nccc(-c4ccc(Cl)cc4)n3n2)c(Cl)c1 = > 25 µM (inactive)
O=c1[nH][nH]c(-c2ccccc2)c1C=Nc1ccccc1 = > 25 µM (inactive)

Continue with the next compound.
Q. Read the entry COc1ccc(CCn2nnnc2C(C(C)C)N2CCN(c3ncccn3)CC2)cc1OC (stereo not drawn) and write its reported IC50.
A. > 25 µM (inactive)
